# Test system: isolated rat liver mitochondria
# assay summary: Oxygen consumption, Clark-type oxygen electrode
# Assay type: biochemical
# condition details: 4 µM
reported metric: I-sub, % of control (O2 consumption rate)

CCCCCC[C@H]1C(=O)O[C@H](C)[C@H](NC(=O)c2cccc(NC=O)c2O)C(=O)O[C@@H](C)[C@@H]1OC(=O)CC(C)C [Antimycin A, reference compound]    51 (5.5) % of control

Would you kindly look at the next entry?
Req: Lab note: isolated rat liver mitochondria assay, enter I-sub, % of control (O2 consumption rate) for CO[C@H]1/C=C/O[C@@]2(C)Oc3c(C)c(O)c4c(O)c(c(/C=N/N5CCN(C)CC5)c(O)c4c3C2=O)NC(=O)/C(C)=C\C=C\[C@H](C)[C@H](O)[C@@H](C)[C@@H](O)[C@@H](C)[C@H](OC(C)=O)[C@@H]1C [Rifampicin, reference compound] here
Resp: 89 (11.7) % of control

###

# System: Caenorhabditis elegans (Bristol N2)
# assay summary: C. elegans larval development and growth assay
# condition details: 25 µM
reported metric: EXT: mean difference in nematode size relative to plate controls
Reply with the value as a number alone.

O=C(Nc1ccc(Cl)cc1)Nc1ccc(Cl)c(Cl)c1    1.322
CCC(C)c1cc([N+](=O)[O-])cc([N+](=O)[O-])c1O (stereo not drawn)    0.1256

Would you kindly look at the next entry?
Req: Lab note: Caenorhabditis elegans (Bristol N2) assay, enter EXT: mean difference in nematode size relative to plate controls for CC[C@@H](C(=O)[C@@H](C)[C@@H](O)[C@H](C)CCc1ccc(C)c(O)c1C(=O)O)[C@H]1O[C@](CC)([C@H]2CC[C@](O)(CC)[C@H](C)O2)C[C@@H]1C [Lasalocid sodium, reference compound] here
Resp: 0.9725

###

# Tested on: Nrf2/ARE (ARE-bla HepG2 cells)
# assay summary: ARE β-lactamase reporter gene assay
# Assay type: cell-based, human
# condition details: 16 h incubation; mean±SD of three experiments; read-out: ARE (HepG2) EC50
Entries and their pEC50
Convention used: pEC50 is expressed as -log10 of the molar concentration.

CCN1C(=CC=Cc2ccc3ccccc3[n+]2CC)C=Cc2ccccc21.[Cl-] [Pinacyanol chloride]    5.86
CO/C=C(/C(=O)OC)c1ccccc1COc1cccc(C(F)(F)F)n1 [Picoxystrobin]    6.12

Would you kindly look at the next entry?
Req: Hello, please tell me recorded pEC50 for this one: CC(C)c1cccc(C(C)C)c1N1C(=O)c2ccc(O)cc2C1=O [5HPP-33]
Resp: 4.60

###

# System: HepG2 cells
# assay summary: cells
# condition details: Homo sapiens, HepG2, read-out: MMP assays IC50 (µM) HepG2
reported metric: IC50 (µM)
Could you give me the number in µM? Just the number is fine.

Examples with their reported IC50 follow.
O=C(CCc1ccc(O)cc1)c1c(O)cc(O)cc1O    11.2
CCC/C=C/C=C/C(=O)O[C@H]1/C(=C/C(=O)OC)C[C@H]2C[C@H]([C@@H](C)O)OC(=O)C[C@H](O)C[C@@H]3C[C@H](OC(C)=O)C(C)(C)[C@](O)(C[C@@H]4C/C(=C/C(=O)OC)C[C@H](/C=C/C(C)(C)[C@]1(O)O2)O4)O3    0.001
CCOC1O[C@H]([C@@H](COCc2ccccc2)OCc2ccccc2)[C@H](OCc2ccccc2)[C@H]1O (some centres unmarked) [Tribenoside]    11.7

Req: Lab note: HepG2 cells assay, enter IC50 for Nc1ccc([N+](=O)[O-])cc1O here
Resp: 35.5

Req: Lab note: HepG2 cells assay, enter IC50 for OC(c1ccc(Cl)cc1)(c1ccc(Cl)cc1)C(Cl)(Cl)Cl here
Resp: 8.91

Req: Lab note: HepG2 cells assay, enter IC50 for CCCCCc1cc(O)c2c(c1)OC(C)(C)c1ccc(C)cc1-2 here
Resp: 1.09

Req: Lab note: HepG2 cells assay, enter IC50 for Cc1cc2nc3c(=O)[nH]c(=O)nc-3n(C[C@H](O)[C@H](O)[C@H](O)CO)c2cc1C here
Resp: 11.2

Req: Lab note: HepG2 cells assay, enter IC50 for Nc1ccc(Cc2ccc(N)c(Cl)c2)cc1Cl here
Resp: 39.8

###

# System: rat primary hepatocytes
reported metric: MMP assays efficacy (%) Rat Hepatocytes

CN1C[C@H](C(=O)N[C@]2(C)O[C@@]3(O)[C@@H]4CCCN4C(=O)[C@H](Cc4ccccc4)N3C2=O)C=C2c3cccc4[nH]cc(c34)C[C@H]21 [Ergotamine D-tartrate]    inactive
COc1cc(/C=C/C(=O)CC(=O)/C=C/c2ccc(O)c(OC)c2)ccc1O    -116±37%
Oc1ccc(/C=C/c2cc(O)cc(O)c2)cc1    inactive
CCCCCCCCCCCCCC[P+](CCCCCC)(CCCCCC)CCCCCC.[Br-] [Trihexyltetradecylphosphonium bromide]    -89±37%
O=C1c2ccccc2C(=O)c2c1ccc(O)c2O    -80±8%
Nc1ccc(-c2ccc(N)c(N)c2)cc1N [3,3'-Diaminobenzidine]    -62±22%

Req: Lab note: rat primary hepatocytes assay, enter MMP assays efficacy (%) Rat Hepatocytes for O=C1OC(c2ccc(O)cc2)(c2ccc(O)cc2)c2ccccc21 here
Resp: -98±24%

Req: Lab note: rat primary hepatocytes assay, enter MMP assays efficacy (%) Rat Hepatocytes for C[C@@]1(c2ccc(Oc3ccccc3)cc2)OC(=O)N(Nc2ccccc2)C1=O (racemic) here
Resp: -158±101%

###

# System: rat primary hepatocytes
Structures can show the parent of a compound that is named as a salt.
Where MMP assays efficacy (%) Rat Hepatocytes equals or exceeds -80%, the correct label is condition met; where it does not, the label is condition not met.

O=c1c(O)c(-c2ccc(O)c(O)c2)oc2cc(O)cc(O)c12 [Quercetin dihydrate]    condition met
CCCSc1ccc2nc(NC(=O)OC)[nH]c2c1    condition not met
Nc1ccc(/N=N/c2ccccc2)c(N)n1 [Phenazopyridine hydrochloride]    condition met
CC1(C)C(/C=C(\Cl)C(F)(F)F)C1C(=O)OC(C#N)c1cccc(Oc2ccccc2)c1 (stereo not drawn)    condition met

In the following, a different compound is considered.
Req: Can O=[N+]([O-])c1cc(C2CCCCC2)c(O)c([N+](=O)[O-])c1 be said to have MMP assays efficacy (%) Rat Hepatocytes at or above -80%?
Resp: condition not met

###

# Test system: rat primary hepatocytes
# assay summary: MMP assay in rat primary hepatocytes
# condition details: Rattus norvegicus, Hepatocyte, read-out: MMP assays IC50 (µM) Rat Hepatocytes
Counter-ions that a name gives are not always drawn.
reported metric: log10 of IC50 (log10 of the value in µM)
Scale type: logarithmic (base 10). Underlying IC50 unit: µM.

Examples with their reported log10 of IC50 follow.
C[C@@]12C(=O)OC(=O)[C@]1(C)[C@H]1CC[C@@H]2O1    -0.35
CC(=O)Oc1ccc(C(c2ccc(OC(C)=O)cc2)c2ccccn2)cc1    1.26

Req: Hello, please tell me recorded log10 of IC50 for this one: CC[C@@]1(O)C[C@H](O[C@H]2C[C@H](N(C)C)[C@H](O[C@H]3C[C@H](O)[C@H](O[C@H]4CCC(=O)[C@H](C)O4)[C@H](C)O3)[C@H](C)O2)c2c(cc3c(c2O)C(=O)c2c(O)cccc2C3=O)[C@H]1C(=O)OC [Aclarubicin hydrochloride]
Resp: 0.84

Req: Hello, please tell me recorded log10 of IC50 for this one: Oc1cc(Cl)ccc1Oc1ccc(Cl)cc1Cl
Resp: 1.18

Req: Hello, please tell me recorded log10 of IC50 for this one: CC1CCCCC1NC(=O)Nc1ccccc1 (centres unmarked)
Resp: 1.64

Req: Hello, please tell me recorded log10 of IC50 for this one: CSc1nc2cc(Cl)c(Oc3cccc(Cl)c3Cl)cc2[nH]1
Resp: 1.19

Req: Hello, please tell me recorded log10 of IC50 for this one: Oc1c(Cl)c(Cl)cc(Cl)c1Cl
Resp: 0.96

Req: Hello, please tell me recorded log10 of IC50 for this one: CCc1oc2ccccc2c1C(=O)c1cc(Br)c(O)c(Br)c1
Resp: 0.69

###

Entries and their IC50
# System: HepG2 cells
# assay summary: cells
# condition details: Homo sapiens, HepG2, read-out: MMP assays IC50 (µM) HepG2
Could you give me the number in µM? Just the number is fine.

Examples with their reported IC50 follow.
O=[N+]([O-])c1ccc(Oc2ccc(C(F)(F)F)cc2[N+](=O)[O-])cc1    28.2
O=C1c2ccccc2C(=O)c2c(O)ccc(O)c21 [1,4-Dihydroxyanthracene-9,10-dione]    8.91
Cc1cc(C)c(/C=C2\C(=O)Nc3ccccc32)[nH]1    13.8

Req: Hello, please tell me recorded IC50 for this one: CSc1nc2cc(Cl)c(Oc3cccc(Cl)c3Cl)cc2[nH]1
Resp: 5.48

Req: Hello, please tell me recorded IC50 for this one: c1ccc(CCCc2ccncc2)cc1
Resp: 14.1

Req: Hello, please tell me recorded IC50 for this one: CCCCCCCCCCCCCC[n+]1ccccc1 [Tetradecylpyridinium bromide]
Resp: 17.8

Req: Hello, please tell me recorded IC50 for this one: CN(C)C(=S)SSC(=S)N(C)C
Resp: 24.5

Req: Hello, please tell me recorded IC50 for this one: Oc1c(Cl)cc(Cl)cc1Sc1cc(Cl)cc(Cl)c1O
Resp: 0.97

Req: Hello, please tell me recorded IC50 for this one: Oc1c(Br)c(Br)c(Br)c(Br)c1Br
Resp: 7.94

Req: Hello, please tell me recorded IC50 for this one: Nc1ccc(Cl)cc1N
Resp: 2
